Listing of recorded log10(IC50) by entry.
target.system: PDE10A1 (AB 020593) (Homo sapiens)
Construct: made in house; host or cells: baculovirus / SF21 insect cells (gene synthesized by Entelechon GmbH)
Sequence (Q9Y233 other isoform, or with tags, fused parts or gaps): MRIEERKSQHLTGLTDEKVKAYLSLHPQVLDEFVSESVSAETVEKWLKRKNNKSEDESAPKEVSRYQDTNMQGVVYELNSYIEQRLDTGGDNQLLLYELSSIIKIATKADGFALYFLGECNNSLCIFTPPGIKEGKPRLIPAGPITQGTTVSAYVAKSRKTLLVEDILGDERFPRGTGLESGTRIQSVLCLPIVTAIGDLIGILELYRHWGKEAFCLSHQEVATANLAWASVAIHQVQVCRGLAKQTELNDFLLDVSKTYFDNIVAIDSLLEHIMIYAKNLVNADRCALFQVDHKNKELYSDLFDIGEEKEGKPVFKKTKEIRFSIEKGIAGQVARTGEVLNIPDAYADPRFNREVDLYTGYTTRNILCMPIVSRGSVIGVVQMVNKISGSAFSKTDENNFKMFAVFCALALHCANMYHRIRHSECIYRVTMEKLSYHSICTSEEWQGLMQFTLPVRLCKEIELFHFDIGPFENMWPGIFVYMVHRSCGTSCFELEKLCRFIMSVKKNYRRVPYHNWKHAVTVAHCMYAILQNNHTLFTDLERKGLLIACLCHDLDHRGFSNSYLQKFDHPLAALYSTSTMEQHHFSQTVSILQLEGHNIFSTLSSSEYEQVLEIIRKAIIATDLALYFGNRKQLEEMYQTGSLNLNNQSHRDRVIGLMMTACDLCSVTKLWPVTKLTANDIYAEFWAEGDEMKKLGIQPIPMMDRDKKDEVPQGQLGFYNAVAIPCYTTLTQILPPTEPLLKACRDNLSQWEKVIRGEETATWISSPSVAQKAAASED
assay.notes: Inhibition of recombinant PDE10A (baculovirus/SF21 system)
Assay type: biochemical
test.context: recombinant cytosolic PDE10A, 0.1 μM [3H]-cAMP, 37° C., 30 minutes, SPA; read-out: PDE10A IC50
Procedure: The DNA of PDE10A1 (AB 020593, 2340 bp) was synthesized and cloned into the vector pCR4.TOPO (Entelechon GmbH, Regensburg, Germany). The gene was than inserted into a baculovirus vector, ligated with the baculovirus DNA. […] PDE activity was determined in a one step procedure in microtiter plates. […] Non-specific enzyme activity was determined without the enzyme. […] One h later the mixture was measured in a liquid scintillation counter for microtiter plates (Microbeta Trilux). […]
Plainly stated, the numbers are log10 of IC50 given in nM.

>>> val("COc1ccc2nnc3c(C)nc(-c4cnn(C)c4)n3c2n1")
2.56
>>> val("COc1ccc2nnc3c(C)nc(-c4cccnc4C)n3c2n1")
2.10
>>> val("COc1ccc2nnc3c(C)nc(-c4ccc5nccn5c4)n3c2n1")
2.41
>>> val("COc1ccc(Cl)c(-c2nc(C)c3nnc4ccc(OC)nc4n23)c1")
1.61

Requested read-out: log10(IC50). Entry: COc1ccc2nnc3c(C)nc(-c4ccc(C(N)=O)c(Cl)c4)n3c2n1
2.20

Requested read-out: log10(IC50). Entry: COc1ccc2nnc3c(C)nc(-c4cccc(Cl)c4)n3c2n1
1.67

Requested read-out: log10(IC50). Entry: COc1ccc2nnc3c(C)nc(-c4ccccc4Oc4ccccc4)n3c2n1
2.91

Requested read-out: log10(IC50). Entry: COc1ccnc2c1nnc1c(C)nc(-c3ccncc3C)n12
1.00
